Listed here: items and their measured pIC50.
# Test Target: beta-catenin (human)
# Sequence (B6V8E6 146-665 limits assumed): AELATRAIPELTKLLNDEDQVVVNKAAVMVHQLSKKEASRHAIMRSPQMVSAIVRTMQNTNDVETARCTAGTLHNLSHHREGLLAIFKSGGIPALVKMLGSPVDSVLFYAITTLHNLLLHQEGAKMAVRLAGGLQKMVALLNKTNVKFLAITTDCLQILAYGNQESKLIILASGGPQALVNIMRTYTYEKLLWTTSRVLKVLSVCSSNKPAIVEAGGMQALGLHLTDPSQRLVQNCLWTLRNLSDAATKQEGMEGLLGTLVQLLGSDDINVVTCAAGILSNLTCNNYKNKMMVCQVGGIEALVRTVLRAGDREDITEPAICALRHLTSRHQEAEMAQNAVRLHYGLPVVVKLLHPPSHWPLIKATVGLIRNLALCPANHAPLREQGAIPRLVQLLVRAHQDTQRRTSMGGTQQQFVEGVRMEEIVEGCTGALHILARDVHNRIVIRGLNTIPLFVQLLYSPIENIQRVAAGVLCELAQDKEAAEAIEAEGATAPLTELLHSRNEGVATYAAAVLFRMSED
# Method Summary: fluorescence polarization; bin >50 nM
pIC50: −log10 of the molar value. *1 amine or outer side, *2 acyl side, *3 side chain or, on linkers, in order; H or OH if unused. Bridges are numbered along the chain shown (N, C = ends). Primed or numbered codes have the meaning given here. [ ]: non-standard residue; d: D form. PyrS2″ = (S)-3-amino-1-((pent-4-en-1-yloxy)carbonyl)pyrrolidine-3-carboxylic acid (olefin stapling residue), C=CCCCOC(=O)N1CC[C@@](N[*:1])(C(=O)[*:2])C1; PyrS2(3) = (S)-3-amino-1-((pent-4-en-1-yloxy)carbonyl)pyrrolidine-3-carboxylic acid, olefin residue, C=CCCCOC(=O)N1CC[C@@](N[*:1])(C(=O)[*:2])C1; B5(3) = 2-amino-2-(pent-4-en-1-yl)hept-6-enoic acid, two olefin arms, C=CCCCC(CCCC=C)(N[*:1])C(=O)[*:2]; 2F3MeF″ = aromatic residue, Cc1cccc(C[C@H](N[*:1])C(=O)[*:2])c1F; Phe(3-COOH) = N[C@@H](Cc1cccc(C(=O)O)c1)C(=O)O; 2F3MeF = Cc1cccc(C[C@H](N[*:1])C(=O)[*:2])c1F; Bta = N[C@@H](Cc1csc2ccccc12)C(=O)O; αAllylPro = C=CC[C@@]1(C(=O)O)CCCN1; BztA = aromatic amino acid residue; tBuAla = CC(C)(C)C[C@H](N)C(=O)O; 3Thi = N[C@@H](Cc1ccsc1)C(=O)O; PyrS2(4) = not defined here; hSer = N[C@@H](CCO)C(=O)O; AsnR = not defined here; GlnR = not defined here; PL3 = not defined here; B5 = not defined here

# Binder, pIC50
rows = [
    ("Ac-[PL3]D[tBuAla][B5]D[Phe(3-COOH)][tBuAla]AFK[PyrS2(4)][2F3MeF][Bta][GlnR]L-NH2 (staple 1-4; bridge 10-14; reading uncertain; also: PyrS2 tied into a staple, partner not placed, printed as Ac-PL3-Asp-Npg-B5-Asp-3COOHF-Npg-Ala-Phe-Lys*3-PyrS2-2F3MeF-BztA-GlnR*3-Leu-NH2) [I-109]", "> 6.70"),
    ("Ac-[PL3]D[tBuAla][B5]N[Phe(3-COOH)]QAFK[PyrS2″][3Thi][BztA][GlnR]A-NH2 (staple 1-4 (inferred); bridge 10-14; not fully specified (residue 10, bridges); printed as Ac-PL3-Asp-Npg-B5-Asn-3COOHF-Gln-Ala-Phe-Lys*3-PyrS2-3Thi-BztA-GlnR*3-Ala-NH2; reading uncertain; also: Lys10 and GlnR14 marked *3) [I-90]", "> 6.70"),
    ("Ac-[PL3][hSer][tBuAla][B5]D[Phe(3-COOH)]QAFK[PyrS2″][3Thi][BztA][GlnR]A-NH2 (staple 1-4 (inferred); bridge 10-14; not fully specified (residue 10, bridges); printed as Ac-PL3-Hse-Npg-B5-Asp-3COOHF-Gln-Ala-Phe-Lys*3-PyrS2-3Thi-BztA-GlnR*3-Ala-NH2; reading uncertain; also: Lys10 and GlnR14 marked *3) [I-89]", "> 6.70"),
    ("Ac-[αAllylPro]D[tBuAla][B5(3)]D[Phe(3-COOH)]AAFK[PyrS2(3)][2F3MeF″][Bta][AsnR]A-NH2 (bridge 10-14; not fully specified (bridges); printed as Ac-PL3-Asp-Npg-B5-Asp-3COOHF-Ala-Ala-Phe-Lys*3-PyrS2-2F3MeF-BztA-AsnR*3-Ala-NH2; reading uncertain) [I-58]", "> 6.70"),
    ("Ac-[αAllylPro]D[tBuAla][B5(3)]D[Phe(3-COOH)]AAFK[PyrS2(3)][2F3MeF″][Bta][AsnR]A-NH2 (bridge 10-14; not fully specified (bridges); printed as Ac-PL3-Asp-Npg-B5-Asp-3COOHF-Ala-Ala-Phe-Lys*3-PyrS2-2F3MeF-BztA-AsnR*3-Ala-NH2; reading uncertain) [I-59]", "> 6.70"),
]
